The listing below reports IC50 for compounds tested on MtMetAP1c (Mycobacterium tuberculosis, UniProt P9WK19).
Sequence (P9WK19 whole entry): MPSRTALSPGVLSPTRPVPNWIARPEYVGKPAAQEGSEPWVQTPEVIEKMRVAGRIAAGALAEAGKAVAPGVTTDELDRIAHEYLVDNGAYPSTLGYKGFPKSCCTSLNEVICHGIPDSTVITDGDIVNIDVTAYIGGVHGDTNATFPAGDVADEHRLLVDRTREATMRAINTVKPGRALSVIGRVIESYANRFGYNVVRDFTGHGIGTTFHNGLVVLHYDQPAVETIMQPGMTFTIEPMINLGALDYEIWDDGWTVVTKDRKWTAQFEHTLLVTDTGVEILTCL
# unit: µM | format: bare number

Would you kindly share the measured IC50 for Oc1c(Br)cc(Cl)c2cccnc12 [CLBQ14] ?
4.92

Suppose we examine the compound Oc1c(I)cc(Cl)c2cccnc12 [Clioquinol (CQ), clioquinol, reference compound] ; what IC50 value has been reported?
11.2
